The entries below are paired with their reported EC50 relative to KD005.
study_target: T1, recombinant human TROP2 extracellular domain (aa 1-274) comprising His tag (human, UniProt P09758 27-274)
T1 construct: Used here for all assays on recombinant human TROP2 (ELISA, immunoblot, SPR, crystal), although only some of them name the catalogue number; also called human recombinant TROP2; recombinant human TROP2 protein; not shown: His tag
T1 sequence: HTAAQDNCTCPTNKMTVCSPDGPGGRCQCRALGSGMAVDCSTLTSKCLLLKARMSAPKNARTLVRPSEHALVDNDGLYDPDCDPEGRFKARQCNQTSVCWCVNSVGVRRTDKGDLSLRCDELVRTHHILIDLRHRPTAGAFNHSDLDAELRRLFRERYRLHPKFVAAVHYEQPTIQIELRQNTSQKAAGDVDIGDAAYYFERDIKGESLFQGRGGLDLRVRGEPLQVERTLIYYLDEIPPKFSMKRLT
assay_info: ELISA, coated rh TROP2, normalized to KD005

- KD044 (antibody, V domains shown, KD005 humanized variant) VH: EVQLLESGGGLVQPGGSLRLSCAASGFTFSGSDMSWVRQAPGKGLEWVSYITSGGTTYYADTVKGRFTISRDNSKNTLYLQMNSLRAEDTAVYYCAKSRLTDSHYVEDAWGQGTLVTVSS: 0.9 ratio to KD005

Continue with the next binder.
If you can, please state the reported EC50 relative to KD005 value of KD005 (antibody, human IgG1, V domains shown, also called anti-TROP2 sdAb KD005) VH: QVQLQESGGGLVEAGGSLRLSCAASGFTFSGSDMSWVRQAPGKGPEWVSYITSGGTTYYPDSVKGRFTISRDNAKNTLYLQMNSLKPDDTALYRCAKSRLTDSHYVEDAWGQGTQVTVSS . 1 ratio to KD005
